Test system: CP329
Assay: qHTS profiling for inhibitors of Plasmodium falciparum proliferation (AID 504749); further: nearly all actives have a fitted effect of over 60% in size
Conditions: P. falciparum in erythrocytes, SYBR Green DNA, 72 h; series mostly up to 28.7 µM
Results filed as inconclusive are left out. Calls of active or inactive are those of the source. The call rests on the fitted dose curve; in most records, active means well fitted inhibition curve with a large enough effect; inconclusive means small, poorly fitted or top-dose-only effect; inactive means flat fitted curve, though single readings scatter.
Outcomes: 1.0 = active, 0.0 = inactive

molecule | class_assignment
O=C(O)CO.[NH2-].[NH2-].[Pt+2] | 0.0
COc1cc(C(=O)NS(=O)(=O)c2ccccc2C)ccc1Cc1cn(C)c2ccc(NC(=O)OC3CCCC3)cc12 | 0.0
COC(=O)C1=C(C)NC(C)=C(C(=O)OCCN2CCN(C(c3ccccc3)c3ccccc3)CC2)C1c1cccc([N+](=O)[O-])c1 (stereo unspecified) | 1.0
COc1c(N2C[C@@H]3CCCN[C@H]3C2)c(F)cc2c(=O)c(C(=O)O)cn(C3CC3)c12 | 0.0
CCC1=C[C@@H]2CN(C1)Cc1c([nH]c3ccccc13)[C@@](C(=O)OC)(c1cc3c(cc1OC)N(C)[C@@H]1[C@@](O)(C(=O)OC)[C@H](OC(C)=O)[C@]4(CC)C=CCN5CC[C@]31[C@@H]54)C2 | 1.0
Nc1ccc(S(=O)(=O)Nc2ncccn2)cc1 | 0.0

// provenance: PubChem BioAssay (NCATS)
